target: human recombinant GST cleaved CSNK1D (Homo sapiens)
Construct: GST (cleaved yes)
test: Purified Enzyme Assay (ADP-Glo CSNK1D Kinase Assay)
assay setup: 2 nM CSNK1D; peptide substrate 150 μM; ATP 20 μM; 45 minutes at room temperature
Overview of reported IC50 across a group of compounds:
Write the number in nM without appending the unit.

- compound: "C[C@H]1n2nc(-c3ccc(F)cc3)c(-c3ccnc4[nH]ncc34)c2COC1(C)C (single isomer, unassigned) [Example 172]"
  IC50 (nM): 5
- compound: "Cc1cc(-c2c(-c3ccc(F)cc3)nn3c2OCC2(C3)CC2(F)F)c2cn[nH]c2n1 (single isomer, unassigned) [Example 475]"
  IC50 (nM): 6
- compound: "Fc1ccc(-c2nn3c(c2-c2c(F)cnc4[nH]ncc24)CC2(C3)CC2(F)F)nc1 (single isomer, unassigned) [Example 258]"
  IC50 (nM): 6
- compound: "CC(C)C(=O)Nc1cc(-c2c(-c3ccc(F)cn3)nn3c2COC(C)(C)C3)ccn1 [Example 132]"
  IC50 (nM): 3
- compound: "Fc1ccc(-c2nn3c(c2-c2ccnc4[nH]ncc24)CC2(C3)CC2(F)F)cc1 (single isomer, unassigned) [Example 251]"
  IC50 (nM): 26

In plain terms, Fc1ccc(-c2nn3c(c2-c2c(F)cnc4[nH]ncc24)OCC2(CC2)C3)nc1 [Example 459] has a documented IC50 of 4

In plain terms, Cc1cc(-c2c(-c3ccc(F)cn3)nn3c2CO[C@@](C)(C(F)(F)F)C3)c2cn[nH]c2n1 (single isomer, unassigned) [Example 180] has a documented IC50 of 54

In plain terms, CC1(C)Cn2nc(-c3ccc(F)cn3)c(-c3ccnc4cc[nH]c34)c2CO1 [Example 149] has a documented IC50 of 1420

In plain terms, CC1(C(F)(F)F)Cn2nc(-c3ccc(F)cc3)c(-c3ccnc4[nH]ncc34)c2CO1 (single isomer, unassigned) [Example 417] has a documented IC50 of 1

In plain terms, CC[C@@]1(C)Cn2nc(-c3ccc(F)cn3)c(-c3ccnc4[nH]ncc34)c2CO1 (single isomer, unassigned) [Example 170] has a documented IC50 of 2

In plain terms, Fc1cncc(-c2nn3c(c2-c2ccnc4[nH]ncc24)COCC3)c1 [Example 76] has a documented IC50 of 168

In plain terms, [2H]C([2H])([2H])OC[C@]1(F)CCc2c(-c3cc(C)nc4[nH]ncc34)c(-c3ccc(F)cn3)nn2C1 (single isomer, unassigned) [Example 310] has a documented IC50 of 3

====

target: human CSNK1D (Homo sapiens)
test: Whole Cell nBRET CSNK1D Binding Assay
assay setup: living CHO cells stably expressing human CSNK1D tagged with nanoluciferase; NanoBret tracer 130 nM; 2 hours at 37 C
The label Condition met is reserved for IC50 strictly under 30 nM; Condition not met covers values equal to or above it.

Look over these answered cases.
- compound: "Cc1cc(-c2c(-c3ccc(F)cc3)nn3c2OC[C@@H](C)C3)c2cn[nH]c2n1 (single isomer, unassigned)"
  group label: "Condition met"
- compound: "COC[C@@]1(F)CCc2c(-c3cc(C)nc4[nH]ncc34)c(-c3ccc(F)cn3)nn2C1 (single isomer, unassigned)"
  group label: "Condition not met"

Is IC50 strictly under 30 nM for the entry "Cc1nc2[nH]ncc2c(-c2c(-c3ccc(F)cn3)nn3c2C[C@@H]2C[C@@H]23)c1F" ?
Condition met

Is IC50 strictly under 30 nM for the entry CC1CCOc2c(-c3ccn4nccc4c3)c(-c3ccc(F)cn3)nn21 (centres unmarked) ?
Condition not met

Is IC50 strictly under 30 nM for the entry COCC1(F)CCc2c(-c3cc(C)nc4[nH]ccc34)c(-c3ccc(F)cn3)nn2C1 (single isomer, unassigned) [Example 299] ?
Condition not met

====

target: human recombinant GST cleaved CSNK1D (Homo sapiens, UniProt P48730)
Construct: GST (cleaved yes)
Sequence (P48730 whole entry): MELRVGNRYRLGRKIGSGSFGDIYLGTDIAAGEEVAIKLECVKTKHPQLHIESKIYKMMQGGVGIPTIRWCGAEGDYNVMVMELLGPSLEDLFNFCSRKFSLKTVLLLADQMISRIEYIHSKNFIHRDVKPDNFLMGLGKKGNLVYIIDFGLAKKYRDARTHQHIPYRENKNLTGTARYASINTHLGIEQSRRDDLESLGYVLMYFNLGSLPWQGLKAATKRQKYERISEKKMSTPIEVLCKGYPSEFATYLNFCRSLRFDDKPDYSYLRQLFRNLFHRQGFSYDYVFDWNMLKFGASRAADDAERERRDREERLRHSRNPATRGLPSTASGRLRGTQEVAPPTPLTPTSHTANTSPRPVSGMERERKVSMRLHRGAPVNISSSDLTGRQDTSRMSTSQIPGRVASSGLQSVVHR
test: Purified Enzyme Assay (ADP-Glo CSNK1D Kinase Assay)
assay setup: 2 nM CSNK1D; peptide substrate 150 μM; ATP 20 μM; 45 minutes at room temperature
Overview of reported log10 of IC50 across a group of compounds:
Plainly stated, the numbers are log10 of IC50 given in nM.

A selection of reference data follows.
- compound: "Cc1cc(-c2c(-c3ccc(F)cn3)nn3c2O[C@@H](C)C[C@H]3C)c2cn[nH]c2n1 (single isomer, unassigned) [Example 206]"
  measurement kind: "log10 of IC50"
  value observed: 1.15
- compound: "CC1(C)CCn2nc(-c3ccc(F)cc3)c(-c3ccnc4[nH]ncc34)c21 [Example 245]"
  measurement kind: "log10 of IC50"
  value observed: 0.70
- compound: "Fc1ccc(-c2nn3c(c2-c2ccnc4[nH]ncc24)OCC(F)(F)C3)cc1 [Example 467]"
  measurement kind: "log10 of IC50"
  value observed: 0.30
- compound: "CC(=O)Nc1cc(-c2c(-c3ccc(F)cc3)nn3c2CCC2C3C2(F)F)ccn1 (racemic) [Example 348]"
  measurement kind: "log10 of IC50"
  value observed: 0.00
- compound: "CC(=O)Nc1cc(-c2c(-c3ccc(F)cc3)nn3c2CC[C@@H]2[C@H]3C2(F)F)ccn1 (stereo in doubt) [Example 349]"
  measurement kind: "log10 of IC50"
  value observed: 0.90
- compound: "Fc1ccc(-c2nn3c(c2-c2ccnc4[nH]ncc24)CCC3)cc1 [Example 4]"
  measurement kind: "log10 of IC50"
  value observed: 0.00

In plain terms, Fc1ccc(-c2nn3c(c2-c2c(F)cnc4[nH]ncc24)COC2(C3)CC2(F)F)nc1 (single isomer, unassigned) [Example 436] has a documented log10 of IC50 of 2.19

In plain terms, Cc1cc(-c2c(-c3ccc(F)cc3)nn3c2CC[C@H]3C)c2cn[nH]c2n1 [Example 18] has a documented log10 of IC50 of 0.30

In plain terms, COCC1CCc2c(-c3cc(C)nc4[nH]ncc34)c(-c3ccc(F)cn3)nn2C1 (single isomer, unassigned) [Example 297] has a documented log10 of IC50 of 1.08

In plain terms, Cc1cc(-c2c(-c3ccc(F)cc3)nn3c2OC[C@H](C)C3)c2cn[nH]c2n1 (single isomer, unassigned) [Example 194] has a documented log10 of IC50 of 0.00

In plain terms, C[C@H]1Cn2nc(-c3ccc(F)cc3)c(-c3ccnc4[nH]ncc34)c2CO1 (single isomer, unassigned) [Example 81] has a documented log10 of IC50 of 0.30

In plain terms, Cc1n[nH]c2ncc(F)c(-c3c(-c4ccc(F)cn4)nn4c3CC[C@@H]3C[C@@H]34)c12 (single isomer, unassigned) [Example 345] has a documented log10 of IC50 of 1.53

In plain terms, [2H]C([2H])([2H])C1(C([2H])([2H])[2H])Cn2nc(-c3ccc(F)cn3)c(-c3c(F)cnc4[nH]ccc34)c2CO1 [Example 397] has a documented log10 of IC50 of 0.30

In plain terms, Fc1ccc(-c2nn3c(c2-c2ccnc4[nH]ncc24)CCC32CC2)nc1 [Example 249] has a documented log10 of IC50 of 1.23

====

target: human recombinant GST cleaved CSNK1D (Homo sapiens, UniProt P48730)
Construct: GST (cleaved yes); purchased University of Dundee clone DU 19064
test: Purified Enzyme Assay (ADP-Glo CSNK1D Kinase Assay)
Assay type: biochemical
assay setup: 2 nM CSNK1D; peptide substrate 150 μM; ATP 20 μM; 45 minutes at room temperature
measurement kind: pIC50
Please keep in mind that pIC50 is minus log10 of the molar concentration; only the number is needed.

- compound: "[2H]C([2H])([2H])C1(C([2H])([2H])[2H])Cn2nc(-c3ccc(F)cn3)c(-c3ccn4nccc4c3)c2CO1 [Example 396]"
  measurement kind: "pIC50"
  value observed: 7.66
- compound: "C[C@H]1C[C@H](C)n2nc(-c3ccc(F)cn3)c(-c3ccnc4[nH]ncc34)c2O1 (single isomer, unassigned) [Example 205]"
  measurement kind: "pIC50"
  value observed: 8.30
- compound: "[2H]C([2H])([2H])C1(C([2H])([2H])[2H])Cc2c(-c3ccnc4[nH]ncc34)c(-c3ccc(F)cc3)nn2C1 [Example 241]"
  measurement kind: "pIC50"
  value observed: 8.70
- compound: "CC1(C)Cn2nc(-c3ccc(F)cn3)c(-c3ccnc4[nH]nc(Cl)c34)c2CO1 [Example 388]"
  measurement kind: "pIC50"
  value observed: 8.40

// below: pIC50 requested for another compound
In plain terms, Fc1ccc(-c2nn3c(c2-c2cc(C(F)F)nc4[nH]ncc24)CCC3)nc1 [Example 222] has a documented pIC50 of 7.96
